# TARGET UNDER TEST: KHK-C expressed in NRK-52E cells (Homo sapiens (Human), UniProt P50053)
# Sequence (P50053 whole entry): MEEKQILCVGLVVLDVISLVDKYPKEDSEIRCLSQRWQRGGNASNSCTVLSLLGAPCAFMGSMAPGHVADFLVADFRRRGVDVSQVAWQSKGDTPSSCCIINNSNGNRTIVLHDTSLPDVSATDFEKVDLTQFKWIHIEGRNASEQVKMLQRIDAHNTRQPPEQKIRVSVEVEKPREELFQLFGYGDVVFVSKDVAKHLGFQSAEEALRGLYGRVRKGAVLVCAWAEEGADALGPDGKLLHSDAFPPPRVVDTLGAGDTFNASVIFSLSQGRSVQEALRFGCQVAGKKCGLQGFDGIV
# ASSAY COMMENT: KHK-C Cell-based Assay (EC50), NRK CTG, fructose-mediated ATP-depletion
Reported EC50 by item:
// note: answer is a bare numeric in µM

// worked examples, EC50 included
# input If you can, please state the reported EC50 value of C[C@H]1[C@H](O)CN1c1nc(-c2ccc(C(N)=O)cc2)c2c(n1)C(F)(F)CCC2 [Example 158] .
# output 1.12

# input Also check C[C@H]1[C@H](O)CN1c1nc(-c2ccc(C(N)=O)cc2)c2c(n1)C1CC2C1 [Example 176]
# output 2.81

# input Also check C[C@H]1[C@H](O)CN1c1nc(-c2cccc(S(N)(=O)=O)c2)c2c(cnn2C)n1 [Example 38]
# output 12.2

# input Also check C[C@H]1[C@H](O)CN1c1nc(-c2cc(F)c3c(c2)OCCNC3=O)c2c(n1)C(F)(F)CC2 [Example 746]
# output 0.108

# input Also check CC(=O)Nc1ccc(-c2nc(N3CC[C@@H]3C)nc3c2CCC3)cc1 [Example 355]
# output 0.0924

Others:
# input If you can, please state the reported EC50 value of C[C@H]1CCN1c1nc2c(c(-c3cccc4c3CC3C(C(=O)O)C43)n1)CCC2 (stereo partly shown) [Example 432] .
# output 2.63

====

# ASSAY COMMENT: pKa analysis by capillary electrophoresis (pKa PRO Analyzer, co-solvent method)
# Format: physicochemical
# TEST CONTEXT: methanol/aqueous co-solvent buffers, co-solvent method (60% to 30% methanol buffers), pH range 1.7-11.2, read-out: 2nd pKa
ASSAY ENDPOINT: pKa
API note: the answer field is a bare number with no unit suffix.

// worked examples, pKa included
# input If you can, please state the reported pKa value of `C[C@H]1CCN1c1nc2c(c(-c3ccc4cnc(O)cc4c3)n1)CCC2` .
# output 9.04

# input Also check `C[C@H]1CCN1c1nc2c(c(-c3cccc(CN)c3)n1)CCC2`
# output 9.27

Others:
# input If you can, please state the reported pKa value of `C[C@H]1CCN1c1nc2c(c(-c3ccc(CN)cc3)n1)CCC2` .
# output 9.27

====

# TARGET UNDER TEST: UniProt P50053
# ASSAY COMMENT: KHK Biochemical Assay (IC50), ADP-Glo, KHK-C
# TEST CONTEXT: average of at least two separate assays
ASSAY ENDPOINT: log10 IC50 (log10 of the value in nM)
Scale type: logarithmic (base 10). Underlying IC50 unit: nM.

// worked examples, log10 IC50 included
# input If you can, please state the reported log10 IC50 value of C[C@H]1[C@H](O)CN1c1nc(-c2ccc3c(c2)C(C)(C)C[C@H]3NS(C)(=O)=O)c2c(n1)C(F)(F)CC2 (single isomer, unassigned) [Example 631] .
# output 1.03

# input Also check C[C@H]1[C@H](O)CN1c1nc(-c2cccc(CN(C)S(C)(=O)=O)c2)c2c(n1)C(F)(F)CC2 [Example 462]
# output 0.51

# input Also check C[C@H]1[C@H](O)CN1c1nc(-c2ccc3c(c2)OCCNC3)c2c(n1)C(F)(F)CC2 [Example 760]
# output 0.23

# input Also check C[C@H](NS(C)(=O)=O)c1cccc(-c2nc(N3C[C@@H](O)[C@@H]3C)nc3c2CCC3(F)F)c1 [Example 745]
# output 1.40

# input Also check C[C@H]1[C@H](O)CN1c1nc(-c2ccc3c(c2)OC[C@@]32CN(C)C(=O)N2)c2c(n1)C(F)(F)CC2 (single isomer, unassigned) [Example 702]
# output -0.70

Others:
# input If you can, please state the reported log10 IC50 value of C[C@H]1[C@H](O)CN1c1nc(-c2ccc3c(c2)S(=O)(=O)NC3)c2c(n1)C(F)(F)CC2 [Example 598] .
# output 0.38

# input Also check Cc1cc(-c2nc(N3C[C@@H](O)[C@@H]3C)nc3c2CCC3(F)F)cc(S(C)(=N)=O)c1 (stereo partly drawn) [Example 720]
# output 0.94

# input Also check C[C@H]1CCN1c1nc2c(c(-c3ccc4c(=O)[nH]cc(S(N)(=O)=O)c4c3)n1)CCC2 [Example 433]
# output 0.80

# input Also check C[C@H]1[C@H](O)CN1c1nc(-c2cc(F)c3c(c2)CC[C@@H]3NS(C)(=O)=O)c2c(n1)C(F)(F)CC2 (single isomer, unassigned) [Example 526]
# output 0.69

# input Also check C[C@@H](NS(C)(=O)=O)c1ccc(-c2nc(N3C[C@@H](O)[C@@H]3C)nc3c2CCC3(F)F)cc1 [Example 740]
# output 1.61

# input Also check C[C@H]1[C@H](O)CN1c1nc(-c2cnc3c(c2)OCCNC3=O)c2c(n1)C(F)(F)CC2 [Example 599]
# output 1.31

# input Also check C[C@H]1[C@H](O)CN1c1nc(-c2cccc(N=S(C)(C)=O)c2)c2c(n1)C(F)(F)CC2 [Example 510]
# output 1.07

# input Also check C[C@H]1[C@H](O)CN1c1nc(-c2ccc(OC3CC3)c(S(C)(=N)=O)c2)c2c(n1)C(F)(F)CC2 (stereo partly drawn) [Example 541]
# output 0.11

# input Also check C[C@H]1[C@H](F)CN1c1nc(-c2ccc3c(c2)S(=O)(=O)CCNC3)c2c(n1)C(F)(F)CC2 [Example 781]
# output 0.46
